pIC50: −log10 of the molar value. Counter-ions that a name gives are not always drawn.
Record type: pIC50 measurement. Applies to: CYP2C9 (Homo sapiens, UniProt P11712)

O=C(Nc1cc(-c2ccccc2)ccc1C(=O)O)c1cc(N2CCCCC2)ccc1O [Example 80a, hydrochloride]	< 3.92
O=C(Nc1cc(-c2ccccc2)ccc1C(=O)O)c1cc(N2CCOCC2)ccc1O [Example 83a, hydrochloride]	< 3.96
CN1CCN(CCc2ccc(O)c(C(=O)Nc3cc(-c4ccccc4)ccc3C(=O)O)c2)CC1 [Example 117a, dimethanesulfonate]	< 3.96

IN: Determine its reported pIC50: CN(C)C1CCN(Cc2ccc(O)c(C(=O)Nc3cc(-c4ccccc4)ccc3C(=O)O)c2)CC1 [Example 128a, dimethanesulfonate]
OUT: < 3.98

IN: Note pIC50 for the compound shown: CN1CCC(Oc2ccc(O)c(C(=O)Nc3cc(-c4ccccc4)ccc3C(=O)O)c2)CC1 [Example 108a, hydrochloride]
OUT: < 3.95

---

target: CYP2C9 (Homo sapiens)
Sequence (P11712 whole entry): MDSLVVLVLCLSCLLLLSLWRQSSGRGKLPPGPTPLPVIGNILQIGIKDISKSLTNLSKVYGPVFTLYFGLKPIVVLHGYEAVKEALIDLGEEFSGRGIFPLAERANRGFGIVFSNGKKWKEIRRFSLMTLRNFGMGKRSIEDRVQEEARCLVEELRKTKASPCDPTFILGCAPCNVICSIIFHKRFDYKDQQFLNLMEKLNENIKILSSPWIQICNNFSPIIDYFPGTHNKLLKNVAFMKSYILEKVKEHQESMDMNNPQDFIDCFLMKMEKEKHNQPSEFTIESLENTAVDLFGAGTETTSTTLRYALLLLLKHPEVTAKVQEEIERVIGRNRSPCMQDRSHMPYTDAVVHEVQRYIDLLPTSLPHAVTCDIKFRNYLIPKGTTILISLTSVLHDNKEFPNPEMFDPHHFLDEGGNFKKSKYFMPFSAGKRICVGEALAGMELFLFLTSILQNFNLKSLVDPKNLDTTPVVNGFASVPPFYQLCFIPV
Where a name gives a salt, the structure may show the parent alone.
Metric: IC50

CCN1CCN(Cc2ccc(O)c(C(=O)Nc3cc(-c4ccccc4)ccc3C(=O)O)c2)CC1 [Example 123a, dimethanesulfonate]	> 76.7 µM
CN1CCN(CCOc2ccc(O)c(C(=O)Nc3cc(-c4ccccc4)ccc3C(=O)O)c2)CC1 [Example 142a, dimethanesulfonate]	> 105 µM
O=C(Nc1cc(-c2ccccc2)ccc1C(=O)O)c1cc(OCCN2CCOCC2)ccc1O [Example 139a, hydrochloride]	> 108 µM

Could you now look at the following compound, please?
IN: Lab note: record IC50 of CCN1CCN(CCOc2ccc(O)c(C(=O)Nc3cc(-c4ccccc4)ccc3C(=O)O)c2)CC1 [Example 143a, dimethanesulfonate] tested on CYP2C9 (Homo sapiens).
OUT: > 102 µM

The measurements presented in this section are drawn from patent US8492582B2.
